These entries and their values trace back to patent US20260356817A1.

# System: Myc
# test_name: Myc inhibition assay: Myc expression per cell by anti-Myc immunofluorescence, high-content imaging
# Format: cell-based, human (patient-derived medulloblastoma xenograft cells)
# condition_context: Table 1; medulloblastoma PDX cells, 4 h; read-out: IC50 (Myc inhibition)
quantity_name: IC50

structure_notation | IC50
COc1ccnc(-c2ccnc(Nc3cccc(F)c3)n2)c1 | 10 to 100 µM
COc1cc(-c2ncnc(Nc3ccccc3)n2)ccn1 | 1 to 10 µM
COc1cc(-c2ncnc(N(C)c3ccccc3)n2)ccn1 | 10 to 100 µM

Value of IC50 reported for the compound COc1cccc(-c2ccnc(Nc3ccccc3)n2)n1 is 10 to 100 µM

Value of IC50 reported for the compound Oc1cc(-c2ccnc(Nc3ccncc3)n2)ccn1 is 1 to 10 µM

Value of IC50 reported for the compound FC(F)(F)c1ccccc1Nc1nccc(-c2ccc3[nH]cnc3c2)n1 is 1 to 10 µM

Value of IC50 reported for the compound Cc1ccccc1-c1cccc(Nc2nccc(-c3ccc4[nH]cnc4c3)n2)c1 is 0.2 to 1 µM

Value of IC50 reported for the compound c1ccc2cc(Nc3nccc(-c4ccc5[nH]cnc5c4)n3)ccc2c1 is 0.2 to 1 µM

Value of IC50 reported for the compound CCN(CC)C(=O)c1cccc(Nc2nccc(-c3ccc4[nH]cnc4c3)n2)c1 is 0.2 to 1 µM

Value of IC50 reported for the compound Clc1cccc(Nc2nccc(-c3ccc4[nH]cnc4c3)n2)c1 is < 0.2 µM

Value of IC50 reported for the compound c1csc(Nc2nccc(-c3ccc4[nH]cnc4c3)n2)c1 is 1 to 10 µM

Value of IC50 reported for the compound COc1ccc(-c2ccnc(N(C)c3ccccc3)n2)cn1 is 10 to 100 µM

Value of IC50 reported for the compound CN(c1ccccc1)c1nccc(-c2ccc(O)nc2)n1 is 10 to 100 µM

Value of IC50 reported for the compound Oc1cc(-c2ccnc(Nc3ccnc(C(F)(F)F)c3)n2)ccn1 is 10 to 100 µM

Value of IC50 reported for the compound O=S(=O)(Nc1cccc(Nc2nccc(-c3ccc4[nH]cnc4c3)n2)c1)c1ccccc1 is 0.2 to 1 µM

Value of IC50 reported for the compound COc1ccc(-c2ccnc(Nc3cccc(F)c3)n2)nc1 is 10 to 100 µM

Value of IC50 reported for the compound c1cc(Nc2nccc(-c3ccc4[nH]cnc4c3)n2)[nH]n1 is 1 to 10 µM

Value of IC50 reported for the compound NS(=O)(=O)c1cccc(Nc2nccc(-c3ccc4[nH]cnc4c3)n2)c1 is < 0.2 µM

Value of IC50 reported for the compound c1csc(CNc2nccc(-c3ccc4[nH]cnc4c3)n2)c1 is 1 to 10 µM

----------
# System: Myc
# test_name: Myc inhibition assay: Myc expression per cell by anti-Myc immunofluorescence, high-content imaging
# Type: cell-based, human (patient-derived medulloblastoma xenograft cells)
# condition_context: Table 1; medulloblastoma PDX cells, 4 h; read-out: IC50 (Myc inhibition)
# Experimental: To identify Myc inhibitors, cells isolated from patient-derived orthotopic xenografts (PDXs) from patients with Myc-driven medulloblastoma were used. […] Cells were then analyzed using high-content imaging to determine the levels of Myc expression per cell and IC50 values of the compounds.
IC50 values by entry

Worked examples, 3 compounds total:
compound | IC50
Cc1ccc(Nc2nccc(-c3ccc4[nH]cnc4c3)n2)cc1 [Compound 103] | 0.2 to 1 µM
c1cc(-c2ccc3[nH]cnc3c2)nc(Nc2ccsc2)n1 [Compound 68] | 0.2 to 1 µM
CC(C)(C)n1cc(Nc2nccc(-c3ccc4nc[nH]c4c3)n2)cn1 [Compound 276] | 0.2 to 1 µM

The record that follows has no IC50 shown yet.
Value of IC50 reported for the compound COc1cccc(-c2ccnc(Nc3ccccc3)c2)c1 [Compound 246] is 10 to 100 µM
